# procedure_text: Single dose PK: plasma and tumour tissue drug concentrations by HPLC in HCT116 xenograft-bearing mice
# Type: in vivo
# measurement_parameters: mouse, plasma, po, single p.o. dose 1 mg/kg PD 0325901+10 mg/kg GDC-0941; over 24 hours; mean ± SD; read-out: PD 0325901 AUC Plasma (converted)
readout_name: AUC (µM·h)
Give a bare numeral; the unit µM·h is implied.

Which AUC value belongs to O=C(NOC[C@H](O)CO)c1ccc(F)c(F)c1Nc1ccc(I)cc1F [PD 0325901] ?
2.73

---

# procedure_text: Single dose PK: plasma and tumour tissue drug concentrations by HPLC in HCT116 xenograft-bearing mice
# Type: in vivo
# measurement_parameters: mouse, plasma, po, single p.o. dose 1 mg/kg PD 0325901+100 mg/kg GDC-0941; over 24 hours; mean ± SD; read-out: GDC-0941 AUC Plasma (converted)
readout_name: AUC
Returns: string containing the numeric result and its unit.

Which AUC value belongs to CS(=O)(=O)N1CCN(Cc2cc3nc(-c4cccc5[nH]ncc45)nc(N4CCOCC4)c3s2)CC1 ?
22.6 µM·h

---

# procedure_text: Single dose PK: plasma and tumour tissue drug concentrations by HPLC in HCT116 xenograft-bearing mice
# Type: in vivo
# measurement_parameters: mouse, plasma, po, 10 mg/kg, single p.o. dose 10 mg/kg PD 0325901+10 mg/kg GDC-0941; over 24 hours; mean ± SD; read-out: PD 0325901 AUC Plasma (converted)
readout_name: AUC (µM·h)
Give a bare numeral; the unit µM·h is implied.

Which AUC value belongs to O=C(NOC[C@H](O)CO)c1ccc(F)c(F)c1Nc1ccc(I)cc1F [PD 0325901] ?
40

---

# procedure_text: Single dose PK: plasma and tumour tissue drug concentrations by HPLC in HCT116 xenograft-bearing mice
# Assay type: in vivo
# measurement_parameters: mouse, plasma, po, single p.o. dose 1 mg/kg PD 0325901+100 mg/kg GDC-0941; over 24 hours; mean ± SD; read-out: PD 0325901 AUC Plasma (converted)
readout_name: AUC (µM·h)
Give a bare numeral; the unit µM·h is implied.

Which AUC value belongs to O=C(NOC[C@H](O)CO)c1ccc(F)c(F)c1Nc1ccc(I)cc1F ?
3.15

---

# procedure_text: Single dose PK: plasma and tumour tissue drug concentrations by HPLC in HCT116 xenograft-bearing mice
# Format: in vivo
# measurement_parameters: mouse, plasma, po, 1 mg/kg, single p.o. dose 1 mg/kg PD 0325901 alone; over 24 hours; mean ± SD; read-out: PD 0325901 AUC Plasma (converted)
readout_name: AUC
Returns: string containing the numeric result and its unit.

Which AUC value belongs to O=C(NOC[C@H](O)CO)c1ccc(F)c(F)c1Nc1ccc(I)cc1F ?
1.38 µM·h

---

# procedure_text: Single dose PK: plasma and tumour tissue drug concentrations by HPLC in HCT116 xenograft-bearing mice
# Assay type: in vivo
# measurement_parameters: mouse, plasma, po, single p.o. dose 10 mg/kg PD 0325901+100 mg/kg GDC-0941; over 24 hours; mean ± SD; read-out: GDC-0941 AUC Plasma (converted)
readout_name: AUC
Returns: string containing the numeric result and its unit.

Which AUC value belongs to CS(=O)(=O)N1CCN(Cc2cc3nc(-c4cccc5[nH]ncc45)nc(N4CCOCC4)c3s2)CC1 [GDC-0941] ?
58.8 µM·h

---

# procedure_text: Single dose PK: plasma and tumour tissue drug concentrations by HPLC in HCT116 xenograft-bearing mice
# Type: in vivo
# measurement_parameters: mouse, plasma, po, 10 mg/kg, single p.o. dose 10 mg/kg PD 0325901 alone; over 24 hours; mean ± SD; read-out: PD 0325901 AUC Plasma (converted)
readout_name: AUC (µM·h)
Give a bare numeral; the unit µM·h is implied.

Which AUC value belongs to O=C(NOC[C@H](O)CO)c1ccc(F)c(F)c1Nc1ccc(I)cc1F ?
21.6
